System: HCC 2998
measurement description: NCI tumour cell line growth inhibition, 48 h
Activity calls are given as the source filed them. Rule as the data show it: active = GI50 up to about 1.1 µM and inactive = higher.
readout type: GI50

What does the record list as GI50 for CCCCn1c(C)c(C)c2c1NN=C(C#N)S2(=O)=O ?
> 100 µM (inactive)

What about this compound? CCOC(=O)C1=C(C)C2C=C(c3cccs3)CC(c3ccc(Cl)cc3)=C2OC1=O (stereo unspecified)
22.5 µM (inactive)

What about this compound? COc1cc(OC)c(C2c3cc4c(cc3OC(N3CCOCC3)C2C)OCO4)c(OC)c1 (stereo unspecified)
> 100 µM (inactive)

What about this compound? COC(C)(C)C1(O)CCC(C)CC1=O (stereo unspecified)
> 100 µM (inactive)

What about this compound? COc1ccc(NC(=O)/C(=N\NC(=O)C[n+]2ccccc2)c2c(O)c3ccc(O)cc3oc2=O)c([N+](=O)[O-])c1
> 100 µM (inactive)

What about this compound? COc1c(C)cc2c(C(C)C)c(O)c(O)c(C=O)c2c1O
33.9 µM (inactive)

* * *

Test system: SNB-19
measurement description: NCI tumour cell line growth inhibition, 48 h
The source made the active and inactive calls. Rule as the data show it: active = GI50 up to about 1.1 µM and inactive = higher.
Please go through the items and note down their GI50.

What does the record list as GI50 for O=S(=O)(c1ccccc1)n1c(C(O)c2ccccc2)cc2ccccc21 (centres undefined) ?
13.7 µM (inactive)

What about this compound? O=C1Nc2ccccc2C(=O)/C1=C/NC(=S)NCc1ccccc1
> 100 µM (inactive)

What about this compound? CC1OC(OC2C(O[C@@H]3C[C@@H]4CC[C@@H]5[C@H](CC[C@]6(C)C7C(C[C@@H]56)O[C@]5(CC[C@@H](C)CO5)[C@H]7C)[C@@]4(C)C[C@H]3O)OC(CO)C(O)C2O)C(O)C(O)C1O (some centres undefined)
2.41 µM (inactive)

What about this compound? Nc1ncc(CN2CCCC2)c(-c2ccccc2O)n1
> 750 µM (inactive)
